# assay_details: Cytotoxicity (SRB) against non-tumoral L02 cells
# Assay type: cell-based, human
# experimental_parameters: human, L02 cells (non-tumoral human liver cell line); increasing concentrations up to 100 μM; mean ± SD of at least three independent experiments; read-out: Normal Human Cell Lines, CC50, L02
Simple rule here: CC50 at 48 h less than 40 µM is Y, otherwise N.

INPUT: Bench note: check whether COc1cccc(OC)c1/C=C/C(=O)c1ccc2c(c1)CCO2 shows CC50 at 48 h below 40 µM
OUTPUT: N

INPUT: Bench note: check whether COc1cccc(OC)c1/C=C/C(=O)c1ccc(F)cc1 shows CC50 at 48 h below 40 µM
OUTPUT: N

INPUT: Bench note: check whether COc1ccc(C(=O)/C=C/c2c(OC)cccc2OC)c(O)c1 shows CC50 at 48 h below 40 µM
OUTPUT: N

INPUT: Bench note: check whether COc1cccc(OC)c1/C=C/C(=O)c1ccc(Cl)cc1 shows CC50 at 48 h below 40 µM
OUTPUT: N

INPUT: Bench note: check whether COc1cccc(OC)c1/C=C/C(=O)c1cccc(N)c1 shows CC50 at 48 h below 40 µM
OUTPUT: N

INPUT: Bench note: check whether COc1cccc(OC)c1/C=C/C(=O)c1ccc2c(c1)OCO2 shows CC50 at 48 h below 40 µM
OUTPUT: N

INPUT: Bench note: check whether CCOc1cccc(C(=O)/C=C/c2c(OC)cccc2OC)c1 shows CC50 at 48 h below 40 µM
OUTPUT: Y

INPUT: Bench note: check whether COc1ccccc1C(=O)/C=C/c1c(OC)cccc1OC shows CC50 at 48 h below 40 µM
OUTPUT: Y

INPUT: Bench note: check whether COc1cccc(OC)c1/C=C/C(=O)c1cccc(C(F)(F)F)c1 shows CC50 at 48 h below 40 µM
OUTPUT: N

INPUT: Bench note: check whether COc1cccc(OC)c1/C=C/C(=O)c1ccccc1F shows CC50 at 48 h below 40 µM
OUTPUT: N

INPUT: Bench note: check whether COc1cccc(OC)c1/C=C/C(=O)c1ccc(Cl)cc1Cl shows CC50 at 48 h below 40 µM
OUTPUT: N

INPUT: Bench note: check whether CCOc1ccc(C(=O)/C=C/c2c(OC)cccc2OC)cc1OC shows CC50 at 48 h below 40 µM
OUTPUT: N

INPUT: Bench note: check whether COc1cccc(OC)c1/C=C/C(=O)c1cccc([N+](=O)[O-])c1 shows CC50 at 48 h below 40 µM
OUTPUT: N

INPUT: Bench note: check whether COc1cccc(OC)c1/C=C/C(=O)c1ccc(OCc2ccccc2)cc1 shows CC50 at 48 h below 40 µM
OUTPUT: N

INPUT: Bench note: check whether CCOc1ccc(C(=O)/C=C/c2c(OC)cccc2OC)cc1 shows CC50 at 48 h below 40 µM
OUTPUT: Y

INPUT: Bench note: check whether COc1cccc(OC)c1/C=C/C(=O)c1ccc(Cl)c(Cl)c1 shows CC50 at 48 h below 40 µM
OUTPUT: N

INPUT: Bench note: check whether COc1cccc(OC)c1/C=C/C(=O)c1ccccc1OCc1ccccc1 shows CC50 at 48 h below 40 µM
OUTPUT: Y

INPUT: Bench note: check whether COc1cccc(OC)c1/C=C/C(=O)c1ccc(C#N)cc1 shows CC50 at 48 h below 40 µM
OUTPUT: N

INPUT: Bench note: check whether COc1cccc(C(=O)/C=C/c2c(OC)cccc2OC)c1 shows CC50 at 48 h below 40 µM
OUTPUT: Y

INPUT: Bench note: check whether COc1cccc(OC)c1/C=C/C(=O)c1cccc(F)c1 shows CC50 at 48 h below 40 µM
OUTPUT: N

INPUT: Bench note: check whether COc1ccc(C(=O)/C=C/c2cc(OC)cc(OC)c2)cc1 shows CC50 at 48 h below 40 µM
OUTPUT: Y

---

# Tested on: SW1990 cells
# assay_details: In vitro anti-proliferative SRB assay, SW1990
# Assay type: cell-based, human
# experimental_parameters: selectivity index, HMLE vs SW1990
Hi there, I'd appreciate the recorded SI (CC50 HMLE/IC50 SW1990) for every entry that follows.
Returns: the value as a bare number; no unit string appended.

INPUT: Request body: readout SI (CC50 HMLE/IC50 SW1990), system SW1990 cells, query COc1ccc(OC)c(C(=O)/C=C/c2c(OC)cccc2OC)c1 [b18] . Return the value.
OUTPUT: 0.3

INPUT: Request body: readout SI (CC50 HMLE/IC50 SW1990), system SW1990 cells, query COc1cccc(C(=O)/C=C/c2c(OC)cccc2OC)c1 [b7] . Return the value.
OUTPUT: 0.5

INPUT: Request body: readout SI (CC50 HMLE/IC50 SW1990), system SW1990 cells, query COc1cccc(OC)c1/C=C/C(=O)c1ccc(Cl)cc1Cl [b37] . Return the value.
OUTPUT: 1.3

INPUT: Request body: readout SI (CC50 HMLE/IC50 SW1990), system SW1990 cells, query COc1cccc(OC)c1/C=C/C(=O)c1cccc(C)c1 [b3] . Return the value.
OUTPUT: 0.6

INPUT: Request body: readout SI (CC50 HMLE/IC50 SW1990), system SW1990 cells, query COc1cccc(OC)c1/C=C/C(=O)c1cccc(Br)c1 [b36] . Return the value.
OUTPUT: 0.8

INPUT: Request body: readout SI (CC50 HMLE/IC50 SW1990), system SW1990 cells, query COc1cccc(OC)c1/C=C/C(=O)c1ccccc1OCc1ccccc1 [b11] . Return the value.
OUTPUT: 2.8

INPUT: Request body: readout SI (CC50 HMLE/IC50 SW1990), system SW1990 cells, query COc1cccc(OC)c1/C=C/C(=O)c1ccccc1O [b24] . Return the value.
OUTPUT: 0.6

INPUT: Request body: readout SI (CC50 HMLE/IC50 SW1990), system SW1990 cells, query COc1cccc(OC)c1/C=C/C(=O)c1cccc(F)c1 [b32] . Return the value.
OUTPUT: 0.4

---

# Tested on: HeLa cells
# assay_details: In vitro anti-proliferative SRB assay, HeLa
# Assay type: cell-based, human
# experimental_parameters: selectivity index, L02 vs HeLa
measurement_label: SI (CC50 L02/IC50 Hela)

INPUT: Request body: readout SI (CC50 L02/IC50 Hela), system HeLa cells, query COc1cccc(OC)c1/C=C/C(=O)c1cccc(OCc2ccccc2)c1 . Return the value.
OUTPUT: >3.9

INPUT: Request body: readout SI (CC50 L02/IC50 Hela), system HeLa cells, query COc1cccc(OC)c1/C=C/C(=O)c1ccccc1C . Return the value.
OUTPUT: 1.9

INPUT: Request body: readout SI (CC50 L02/IC50 Hela), system HeLa cells, query COc1cccc(OC)c1/C=C/C(=O)c1cccc(Cl)c1 . Return the value.
OUTPUT: 2.8

INPUT: Request body: readout SI (CC50 L02/IC50 Hela), system HeLa cells, query CCOc1cccc(C(=O)/C=C/c2c(OC)cccc2OC)c1 . Return the value.
OUTPUT: 1.4

INPUT: Request body: readout SI (CC50 L02/IC50 Hela), system HeLa cells, query COc1cccc(OC)c1/C=C/C(=O)c1ccc(O)cc1 . Return the value.
OUTPUT: 2.2

INPUT: Request body: readout SI (CC50 L02/IC50 Hela), system HeLa cells, query COc1cccc(OC)c1/C=C/C(=O)c1ccccc1O . Return the value.
OUTPUT: 1.8

INPUT: Request body: readout SI (CC50 L02/IC50 Hela), system HeLa cells, query COc1cccc(OC)c1/C=C/C(=O)c1cccc(O)c1 . Return the value.
OUTPUT: 2.1

INPUT: Request body: readout SI (CC50 L02/IC50 Hela), system HeLa cells, query COc1cccc(OC)c1/C=C/C(=O)c1ccc(F)cc1 . Return the value.
OUTPUT: 3.7

INPUT: Request body: readout SI (CC50 L02/IC50 Hela), system HeLa cells, query COc1cccc(C(=O)/C=C/c2c(OC)cccc2OC)c1 . Return the value.
OUTPUT: 1.8

INPUT: Request body: readout SI (CC50 L02/IC50 Hela), system HeLa cells, query COc1cccc(OC)c1/C=C/C(=O)c1ccc2c(c1)CCO2 . Return the value.
OUTPUT: 2.7

INPUT: Request body: readout SI (CC50 L02/IC50 Hela), system HeLa cells, query COc1ccc(OC)c(C(=O)/C=C/c2c(OC)cccc2OC)c1 . Return the value.
OUTPUT: 3.7

---

# Test system: HeLa cells
# assay_details: In vitro anti-proliferative SRB assay, HeLa
# Type: cell-based, human
# experimental_parameters: selectivity index, HMLE vs HeLa
# Method: HepG2 and MCF7 cells were grown in the Eagle’s minimum essential medium with Earle’s balanced salts (MEM-EBSS) medium, HeLa, A549 and L02 cells were grown in Dulbecco’s Modified Eagle Media (DMEM), SW1990 cells were grown in RPMI-1640 medium, and HMLE cell were grown in DMEM/F-12 medium. […] Cells were seeded into 96-well plates (4000 cells/well) and incubated at 37 °C in a humidified 5% CO2 atmosphere. […] Cell viability was evaluated using the sulforhodamine B (SRB) assay as previous described.
Use 0.9 as the dividing line for SI (CC50 HMLE/IC50 Hela), with the line itself on the Criterion met side and lower values as Criterion not met.

INPUT: Determine whether measured SI (CC50 HMLE/IC50 Hela) meets or exceeds 0.9 for COc1cc(C(=O)/C=C/c2c(OC)cccc2OC)ccc1O [b29]
OUTPUT: Criterion met

INPUT: Determine whether measured SI (CC50 HMLE/IC50 Hela) meets or exceeds 0.9 for COc1cccc(OC)c1/C=C/C(=O)c1ccc(O)cc1O [b27]
OUTPUT: Criterion met

INPUT: Determine whether measured SI (CC50 HMLE/IC50 Hela) meets or exceeds 0.9 for COc1cccc(OC)c1/C=C/C(=O)c1cccc(F)c1 [b32]
OUTPUT: Criterion not met

INPUT: Determine whether measured SI (CC50 HMLE/IC50 Hela) meets or exceeds 0.9 for CCOc1ccccc1C(=O)/C=C/c1c(OC)cccc1OC [b8]
OUTPUT: Criterion not met

INPUT: Determine whether measured SI (CC50 HMLE/IC50 Hela) meets or exceeds 0.9 for COc1cccc(OC)c1/C=C/C(=O)c1cccc(C)c1 [b3]
OUTPUT: Criterion met

INPUT: Determine whether measured SI (CC50 HMLE/IC50 Hela) meets or exceeds 0.9 for COc1cccc(OC)c1/C=C/C(=O)c1ccccc1F [b31]
OUTPUT: Criterion met

INPUT: Determine whether measured SI (CC50 HMLE/IC50 Hela) meets or exceeds 0.9 for COc1cccc(OC)c1/C=C/C(=O)c1cccc(Br)c1 [b36]
OUTPUT: Criterion met

INPUT: Determine whether measured SI (CC50 HMLE/IC50 Hela) meets or exceeds 0.9 for COc1cccc(OC)c1/C=C/C(=O)c1ccc(Cl)cc1Cl [b37]
OUTPUT: Criterion met

INPUT: Determine whether measured SI (CC50 HMLE/IC50 Hela) meets or exceeds 0.9 for COc1cccc(OC)c1/C=C/C(=O)c1ccc2c(c1)CCO2 [b21]
OUTPUT: Criterion not met

INPUT: Determine whether measured SI (CC50 HMLE/IC50 Hela) meets or exceeds 0.9 for CCOc1ccc(C(=O)/C=C/c2c(OC)cccc2OC)cc1OC [b16]
OUTPUT: Criterion met
